Source listed as patent US20240408169A1.

Molecular target: CyclinB1/CDK1 (Homo sapiens, UniProt P14635)
Construct: purchased Eurofins, discovery 14-450
Assay: Fluorescence Polarization (FP) competitive binding assay, Cyclin B1/Cdk1;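 also: fluorescence polarization read after equilibration at room temperature, with IC50 taken from serially diluted dose-response curves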
Conditions: 10 nM Cyclin B1/Cdk1, 2 nM FAM probe; average of 2-3 independent experiments; read-out: Cyclin B FP IC50
*1 amine or outer side, *2 acyl side, *3 side chain or, on linkers, in order; H or OH if unused. Where a SMILES comes first, the peptide text is derived from it. Bridges are numbered along the chain shown (N, C = ends). [ ]: non-standard residue; d: D form. The star is where a group is joined. NMePhe(2-(4-MorPh),5-Cl) = CN[C@@H](Cc1cc(Cl)ccc1-c1ccc(N2CCOCC2)cc1)C(=O)O; X98 = CN1CC2(C1)OCc1cc(-c3ccc(Cl)cc3C[C@@H](C(=O)[*:2])N(C)[*:1])ccc12; NMehhhLys(Me) = CN([C@@H](CCCCCCCN(C)[*:3])C(=O)[*:2])[*:1]; cBuCO(3,3-F2-1-CF3) = O=C(C1(C(F)(F)F)CC(F)(F)C1)*; Pro(trans-4-F) = O=C(O)[C@@H]1C[C@@H](F)CN1; Nva(5-OH) = N[C@@H](CCCO)C(=O)O; Gly(cPr) = N[C@H](C(=O)O)C1CC1
experimental_endpoint: IC50 (µM)
Numbers only, in µM.

Solved entries:
Q: What value of measured IC50 is listed for CC(C)C[C@@H]1NC(=O)[C@@H](N(C)C(=O)[C@@H](NC(=O)[C@@H]2C[C@@H](F)CN2C(=O)C2(C(F)(F)F)CC(F)(F)C2)C2CC2)CC=CCCCCNC(=O)[C@H](Cc2cc(Cl)ccc2C2=CCC(F)(F)CC2)N(C)C1=O [Example 22] ?
A: 0.02

Q: What value of measured IC50 is listed for CC(C)C[C@@H]1NC(=O)[C@@H](N(C)C(=O)[C@@H](NC(=O)[C@@H]2C[C@@H](F)CN2C(=O)C2(C(F)(F)F)CC(F)(F)C2)C2CC2)CCCCCCCN(C)C(=O)[C@H](Cc2cc(Cl)ccc2-c2ccc3c(c2)COC32CN(C)C2)N(C)C1=O [Example 355] ({cBuCO(3,3-F2-1-CF3)}-[Pro(trans-4-F)][Gly(cPr)][NMehhhLys(Me)]L[X98]; lactam 3-C) ?
A: 0.02

Attention now shifts to the item below.
Q: What value of measured IC50 is listed for CC(C)C[C@@H]1NC(=O)[C@@H](N(C)C(=O)[C@H](CCCO)NC(=O)[C@@H]2C[C@@H](F)CN2C(=O)C2(C(F)(F)F)CC(F)(F)C2)CCCCCCCN(C)C(=O)[C@H](Cc2cc(Cl)ccc2-c2ccc(N3CCOCC3)cc2)N(C)C1=O [Example 421] ({cBuCO(3,3-F2-1-CF3)}-[Pro(trans-4-F)][Nva(5-OH)][NMehhhLys(Me)]L[NMePhe(2-(4-MorPh),5-Cl)]; lactam 3-C) ?
A: 0.02

====

Test system: OVCAR3 cells
Assay: MTT proliferation assay, OVCAR3;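 also: compound given as an 8- or 10-point series, one day after plating, with exposure covering roughly 3-4 cell doublings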
Type: cell-based
Settings: 5 days compound exposure, 1:3 serial dilution starting at 10 μM
*1 amine or outer side, *2 acyl side, *3 side chain or, on linkers, in order; H or OH if unused. Where a SMILES comes first, the peptide text is derived from it. Bridges are numbered along the chain shown (N, C = ends). [ ]: non-standard residue; d: D form. The star is where a group is joined. X48 = CN(C)C[C@H]1CN(c2ccc(-c3ccc(Cl)cc3C[C@@H](C(=O)[*:2])N(C)[*:1])cc2)CCO1; X212 = CN1CCC(Oc2ccc(-c3ccc(Cl)cc3C[C@@H](C(=O)[*:2])N(C)[*:1])cn2)CC1; NMehhhLys(Me) = CN([C@@H](CCCCCCCN(C)[*:3])C(=O)[*:2])[*:1]; X28 = CN([C@@H](Cc1cc(Cl)cnc1OC1CCC1)C(=O)[*:2])[*:1]; cBuCO(3,3-F2-1-CF3) = O=C(C1(C(F)(F)F)CC(F)(F)C1)*; Pro(trans-4-F) = O=C(O)[C@@H]1C[C@@H](F)CN1; Gly(cPr) = N[C@H](C(=O)O)C1CC1
experimental_endpoint: GI50 (nM)
Give bare numbers, in nM.

Solved entries:
Q: What value of measured GI50 is listed for CC(C)C[C@@H]1NC(=O)[C@@H](N(C)C(=O)[C@@H](NC(=O)[C@@H]2C[C@@H](F)CN2C(=O)C2(C(F)(F)F)CC(F)(F)C2)C2CC2)CCCCCCCN(C)C(=O)[C@H](Cc2cc(Cl)cnc2OC2CCC2)N(C)C1=O [Example 140] ({cBuCO(3,3-F2-1-CF3)}-[Pro(trans-4-F)][Gly(cPr)][NMehhhLys(Me)]L[X28]; lactam 3-C) ?
A: 130

Q: What value of measured GI50 is listed for CC(C)C[C@@H]1NC(=O)[C@@H](N(C)C(=O)[C@@H](NC(=O)[C@@H]2C[C@@H](F)CN2C(=O)C2(C(F)(F)F)CC(F)(F)C2)C2CC2)CCCCCCCN(C)C(=O)[C@H](Cc2cc(Cl)ccc2-c2ccc(OC3CCN(C)CC3)nc2)N(C)C1=O [Example 396] ({cBuCO(3,3-F2-1-CF3)}-[Pro(trans-4-F)][Gly(cPr)][NMehhhLys(Me)]L[X212]; lactam 3-C) ?
A: 10

Attention now shifts to the item below.
Q: What value of measured GI50 is listed for CC(C)C[C@@H]1NC(=O)[C@@H](N(C)C(=O)[C@@H](NC(=O)[C@@H]2C[C@@H](F)CN2C(=O)C2(C(F)(F)F)CC(F)(F)C2)C2CC2)CCCCCCCN(C)C(=O)[C@H](Cc2cc(Cl)ccc2-c2ccc(N3CCO[C@@H](CN(C)C)C3)cc2)N(C)C1=O [Example 410] ({cBuCO(3,3-F2-1-CF3)}-[Pro(trans-4-F)][Gly(cPr)][NMehhhLys(Me)]L[X48]; lactam 3-C) ?
A: 10
